Just for reference, patent US20230265116A1 is where these values come from.

# Test system: EGFR Del19/T790M/C797S (H1975-clone #28)
# measurement notes: EGFR degradation HTRF assay, H1975-clone #28 DTC cells
# Format: cell-based
# measurement parameters: H1975 # 28 DTC cells; maximum percentage of inhibition (degradation)
quantity kind: Dmax (%) H1975 # 28 DTC

1) CCOc1cc(N2CCC(N3CCN(C[C@H]4CCN(c5cccc6c5oc(=O)n6C5CCC(=O)NC5=O)C4)CC3)CC2)c(CC)cc1Nc1ncc(Br)c(Nc2ccc3c(=O)n(CC)ncc3c2P(C)(C)=O)n1 (stereo partly shown) [Example 560] :: 80.68%

query: Retrieve Dmax (%) H1975 # 28 DTC measured for CCc1cc(Nc2ncc(Br)c(Nc3ccc4nc(C)ccc4c3P(C)(C)=O)n2)c(OC2CC2)cc1N1CCC(N2CCN(CCc3cccc4c3n(C)c(=O)n4C3CCC(=O)NC3=O)CC2)CC1 (stereo not shown) [Example 642] and print it.
result: 76.78%

query: Retrieve Dmax (%) H1975 # 28 DTC measured for CCOc1cc(N2CCC(N3CCN(CCc4cc(F)c([C@H]5CCC(=O)NC5=O)c(F)c4)CC3)CC2)c(CC)cc1Nc1ncc(Br)c(Nc2ccc3c(=O)n(CC)ncc3c2P(C)(C)=O)n1 [Example 679] and print it.
result: 83.46%

query: Retrieve Dmax (%) H1975 # 28 DTC measured for COc1cc(N2CCC(N3CC(C(=O)N4CCC(c5cc(F)c(C6CCC(=O)NC6=O)c(F)c5)CC4)C3)CC2)c(C)cc1Nc1ncc(Br)c(Nc2ccc3nc(C)ccc3c2P(C)(C)=O)n1 (stereo not shown) [Example 687] and print it.
result: 68.75%

query: Retrieve Dmax (%) H1975 # 28 DTC measured for CCc1cc(Nc2ncc(Br)c(Nc3ccc4nc(C)c(F)cc4c3P(C)(C)=O)n2)c(OC)cc1N1CCC(N2CCN(C(=O)[C@H]3CN(c4cc(F)c([C@H]5CCC(=O)NC5=O)c(F)c4)CC3(C)C)CC2)CC1 [Example 576] and print it.
result: 81.93%

query: Retrieve Dmax (%) H1975 # 28 DTC measured for CCc1cc(Nc2ncc(Br)c(Nc3ccc4nc(C)ccc4c3P(C)(C)=O)n2)c(OC)cc1N1CCC(N2CCN(C(=O)Cc3cccc4c3n(C)c(=O)n4C3CCC(=O)NC3=O)CC2)CC1 (stereo not shown) [Example 697] and print it.
result: 71.39%

* * *

Examples of compounds with documented DC50 follow.
# measured on: EGFR L858R/C797S (BaF3 LC cells) (Homo sapiens, UniProt P00533, C797S/L858R)
# Construct: expressed in transfected cells; host or cells: BaF3
# Sequence (P00533 25-1210 C797S/L858R): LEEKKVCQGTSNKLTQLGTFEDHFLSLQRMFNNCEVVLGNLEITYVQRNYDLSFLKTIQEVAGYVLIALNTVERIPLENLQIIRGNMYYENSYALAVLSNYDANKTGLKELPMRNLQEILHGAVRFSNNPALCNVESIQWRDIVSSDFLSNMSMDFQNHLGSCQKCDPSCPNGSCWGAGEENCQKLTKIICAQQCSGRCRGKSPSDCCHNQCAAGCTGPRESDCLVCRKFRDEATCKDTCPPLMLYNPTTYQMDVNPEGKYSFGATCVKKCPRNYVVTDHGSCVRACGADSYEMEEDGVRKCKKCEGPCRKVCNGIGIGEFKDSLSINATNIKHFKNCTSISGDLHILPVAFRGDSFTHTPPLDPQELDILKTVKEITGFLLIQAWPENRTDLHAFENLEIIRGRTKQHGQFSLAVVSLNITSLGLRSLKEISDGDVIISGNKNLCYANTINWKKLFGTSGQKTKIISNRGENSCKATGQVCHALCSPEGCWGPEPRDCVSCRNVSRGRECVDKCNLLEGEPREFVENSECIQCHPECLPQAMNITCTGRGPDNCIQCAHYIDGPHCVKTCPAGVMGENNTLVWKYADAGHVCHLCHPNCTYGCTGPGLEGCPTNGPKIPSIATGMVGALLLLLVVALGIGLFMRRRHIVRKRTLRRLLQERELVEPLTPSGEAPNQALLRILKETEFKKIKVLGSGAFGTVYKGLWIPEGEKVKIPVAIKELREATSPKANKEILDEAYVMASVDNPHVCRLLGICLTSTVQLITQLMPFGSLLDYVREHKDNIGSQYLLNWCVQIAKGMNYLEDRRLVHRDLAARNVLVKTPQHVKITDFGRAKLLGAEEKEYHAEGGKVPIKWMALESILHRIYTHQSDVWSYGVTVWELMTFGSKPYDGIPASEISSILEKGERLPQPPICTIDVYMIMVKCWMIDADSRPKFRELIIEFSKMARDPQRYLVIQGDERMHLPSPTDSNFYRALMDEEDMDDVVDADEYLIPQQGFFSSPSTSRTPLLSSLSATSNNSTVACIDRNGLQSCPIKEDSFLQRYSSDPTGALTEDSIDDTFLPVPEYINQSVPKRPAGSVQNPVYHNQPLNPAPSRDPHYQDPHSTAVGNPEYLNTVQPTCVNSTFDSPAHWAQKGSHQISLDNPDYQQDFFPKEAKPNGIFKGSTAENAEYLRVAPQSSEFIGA
# measurement notes: EGFR degradation HTRF assay, BaF3 LC cells
# Format: cell-based
# measurement parameters: BaF3 LC, 16h treatment; read-out: BaF3 LC DC50
The figure you give is taken to be in nM; do not add the unit.

These recorded examples may help you get a feel for the data.
1. CCOc1cc(N2CCC(N3CCN(CCc4ccc(F)c5c4oc(=O)n5C4CCC(=O)NC4=O)CC3)CC2)c(CC)cc1Nc1ncc(Br)c(Nc2ccc3nc(CC)ccc3c2P(C)(C)=O)n1 (stereo not drawn) [Example 505] :: 8.88
2. CCOc1cc(N2CCC(N3CCN(CCc4cc(F)c([C@H]5CCC(=O)NC5=O)c(F)c4)CC3)CC2)c(CC)cc1Nc1ncc(Br)c(Nc2ccc3c(=O)n(C)ncc3c2P(C)(C)=O)n1 [Example 502] :: 57.2

Now, please, on to the next compound.
query: Retrieve DC50 measured for CCOc1cc(N2CCC(N3CCN(CCc4cccc5c4n(C4CC4)c(=O)n5C4CCC(=O)NC4=O)CC3)CC2)c(CC)cc1Nc1ncc(Br)c(Nc2ccc3nc(CC)ccc3c2P(C)(C)=O)n1 (stereo not drawn) [Example 468] and print it.
result: 66.1

* * *

# measured on: EGFR L858R/T790M (H1975-clone #36, homozygous) (Homo sapiens, UniProt P00533, L858R/T790M)
# Construct: designed to specifically target WT EGFR but preserve the L858R/T790M copy; host or cells: H1975-clone #36
# Sequence (P00533 25-1210 T790M/L858R): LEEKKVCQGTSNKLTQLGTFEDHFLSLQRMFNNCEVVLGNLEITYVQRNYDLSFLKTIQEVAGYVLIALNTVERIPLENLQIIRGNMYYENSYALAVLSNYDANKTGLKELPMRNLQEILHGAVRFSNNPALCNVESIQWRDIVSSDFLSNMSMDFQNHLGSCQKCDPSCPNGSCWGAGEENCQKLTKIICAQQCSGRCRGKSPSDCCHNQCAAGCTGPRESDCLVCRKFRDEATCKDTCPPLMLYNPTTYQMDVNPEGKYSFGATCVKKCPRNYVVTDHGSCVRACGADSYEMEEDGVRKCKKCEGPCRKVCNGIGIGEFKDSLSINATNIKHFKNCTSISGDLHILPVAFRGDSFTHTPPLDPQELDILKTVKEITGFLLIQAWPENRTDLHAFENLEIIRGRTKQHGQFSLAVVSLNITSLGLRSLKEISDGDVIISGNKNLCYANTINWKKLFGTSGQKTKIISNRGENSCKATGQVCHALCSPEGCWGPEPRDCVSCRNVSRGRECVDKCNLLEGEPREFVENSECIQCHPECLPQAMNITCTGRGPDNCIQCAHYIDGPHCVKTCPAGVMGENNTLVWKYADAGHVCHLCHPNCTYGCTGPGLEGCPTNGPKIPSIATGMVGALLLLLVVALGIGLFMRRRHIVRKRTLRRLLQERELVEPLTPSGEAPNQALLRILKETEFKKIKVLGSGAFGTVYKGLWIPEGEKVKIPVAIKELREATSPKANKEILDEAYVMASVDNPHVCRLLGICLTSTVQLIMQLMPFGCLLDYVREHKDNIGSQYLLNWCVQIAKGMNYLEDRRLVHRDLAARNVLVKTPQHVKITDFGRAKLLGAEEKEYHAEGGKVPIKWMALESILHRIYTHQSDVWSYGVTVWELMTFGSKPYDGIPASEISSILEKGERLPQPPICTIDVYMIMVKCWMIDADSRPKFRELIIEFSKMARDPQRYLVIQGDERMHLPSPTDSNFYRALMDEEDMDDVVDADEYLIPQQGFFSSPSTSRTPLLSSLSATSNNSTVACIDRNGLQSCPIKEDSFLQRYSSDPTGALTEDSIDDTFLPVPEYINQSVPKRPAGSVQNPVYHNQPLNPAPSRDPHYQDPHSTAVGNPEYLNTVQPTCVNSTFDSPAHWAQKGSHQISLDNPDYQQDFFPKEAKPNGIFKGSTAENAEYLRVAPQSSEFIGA
# measurement notes: EGFR degradation HTRF assay, H1975-clone #36 cells
# Format: cell-based
# measurement parameters: H1975 #36, 16h treatment
quantity kind: DC50 (nM)
The figure you give is taken to be in nM; do not add the unit.

1) CCc1cc(Nc2ncc(Br)c(Nc3ccc4nccnc4c3P(C)(C)=O)n2)c(OC)cc1N1CCC(N2CCN(C[C@H]3CCN(c4ccc(C5CCC(=O)NC5=O)cc4)C3)CC2)CC1 (some centres unmarked) [Example 220] :: 8.8
2) CCc1cc(Nc2ncc(Br)c(Nc3ccc4nccnc4c3P(C)(C)=O)n2)c(OC)cc1N1CCC(N2CCN(CCC3CCN(c4ccc(C5CCC(=O)NC5=O)cc4)CC3)CC2)CC1 (centres unmarked) [Example 23] :: 14.1
3) CCc1cc(Nc2ncc(Br)c(Nc3ccc4nccnc4c3P(C)(C)=O)n2)c(OC)cc1N1CCC(N2CCN(C(=O)C3CCN(c4cc(F)c(C5CCC(=O)NC5=O)c(F)c4)CC3)CC2)CC1 (centres unmarked) [Example 254] :: 3.61
4) CCc1cc(Nc2ncc(Br)c(Nc3ccc4nccnc4c3P(C)(C)=O)n2)c(OC)cc1N1CCC(N2CCN(CC3CN(c4ccc5c(c4)CN(C4CCC(=O)NC4=O)C5=O)C3)CC2)CC1 (centres unmarked) [Example 160] :: 3.07

Now, please, on to the next compound.
query: Retrieve DC50 measured for CCc1cc(Nc2ncc(Br)c(Nc3ccc4nccnc4c3P(C)(C)=O)n2)c(OC)cc1N1CCC(N2CCN(CCCN3CCN(c4ccc5c(c4)C(=O)N(C4CCC(=O)NC4=O)C5=O)CC3)CC2)CC1 (centres unmarked) [Example 60] and print it.
result: 16.5

* * *

Examples of compounds with documented DTC Dmax (%) follow.
# Tested on: EGFR Del19/T790M/C797S (BaF3-DTC cells)
# measurement notes: EGFR degradation HTRF assay, BaF3-DTC cells
# Format: cell-based
# measurement parameters: 16h treatment, maximum percentage of degradation

1) CCc1cc(Nc2ncc(Br)c(Nc3ccc4nccnc4c3P(C)(C)=O)n2)c(OC)cc1N1CCC(N2CCN(C(=O)C3CN(c4ccc(C5CCC(=O)NC5=O)cc4)C3)CC2)CC1 (centres unmarked) :: 84.49%

query: Fill in: DTC Dmax (%) on EGFR Del19/T790M/C797S (BaF3-DTC cells), entry CCc1cc(Nc2ncc(Br)c(Nc3ccc4nccnc4c3P(C)(C)=O)n2)c(OC)cc1N1CCC(N2CCN(CCc3ccc(C4CCC(=O)NC4=O)c(F)c3)[C@@H](COC)C2)CC1 (some centres unmarked)
result: 83.85%

query: Fill in: DTC Dmax (%) on EGFR Del19/T790M/C797S (BaF3-DTC cells), entry COc1cc(N2CCC(N3CCN(CCC4CCN(c5cc(F)c(C6CCC(=O)NC6=O)c(F)c5)CC4)CC3)CC2)ccc1Nc1ncc(Br)c(Nc2ccc3nc(C)ccc3c2P(C)(C)=O)n1 (centres unmarked)
result: 97.83%

query: Fill in: DTC Dmax (%) on EGFR Del19/T790M/C797S (BaF3-DTC cells), entry CCc1cc(Nc2ncc(Br)c(Nc3ccc4nccnc4c3P(C)(C)=O)n2)c(OC)cc1N1CCC(N2CCN(C(=O)C3CN(c4ccc5nn(C6CCC(=O)NC6=O)cc5c4)C3)CC2)CC1 (centres unmarked)
result: 89.47%

query: Fill in: DTC Dmax (%) on EGFR Del19/T790M/C797S (BaF3-DTC cells), entry CCc1cc(Nc2ncc(Br)c(Nc3ccc4ncccc4c3P(C)(C)=O)n2)c(OC)cc1N1CCC(N2CCN(CCc3cc(F)c(C4CCC(=O)NC4=O)c(F)c3)CC2)CC1 (centres unmarked)
result: 95.68%

query: Fill in: DTC Dmax (%) on EGFR Del19/T790M/C797S (BaF3-DTC cells), entry CCc1cc(Nc2ncc(Br)c(Nc3ccc4nc(C)ccc4c3P(C)(C)=O)n2)c(OC)cc1N1CCC(N2CCN(CC3CCN(c4cc(F)c(NC5CCC(=O)NC5=O)c(F)c4)CC3)CC2)CC1 (centres unmarked)
result: 79.24%

query: Fill in: DTC Dmax (%) on EGFR Del19/T790M/C797S (BaF3-DTC cells), entry CCc1cc(Nc2ncc(Br)c(Nc3ccc4nccnc4c3P(C)(C)=O)n2)c(OC)cc1N1CCC(N2CCN(CCC3CCN(c4ccc5c(c4)CN(C4CCC(=O)NC4=O)C5=O)CC3)CC2)CC1 (centres unmarked)
result: 91.36%

query: Fill in: DTC Dmax (%) on EGFR Del19/T790M/C797S (BaF3-DTC cells), entry CCc1cc(Nc2ncc(Br)c(Nc3ccc4c(=O)n(C)ncc4c3P(C)(C)=O)n2)c(OC)cc1N1CCC(N2CCN(CCc3cc(F)c(C4CCC(=O)NC4=O)c(F)c3)CC2)CC1 (centres unmarked)
result: 97.96%

query: Fill in: DTC Dmax (%) on EGFR Del19/T790M/C797S (BaF3-DTC cells), entry CCc1cc(Nc2ncc(Br)c(Nc3ccc4nc(C)ccc4c3P(C)(C)=O)n2)c(OC)cc1N1CCC(N2CCN(CCc3ccc4c(c3)N(C3CCC(=O)NC3=O)C(=O)C4(C)C)CC2)CC1 (centres unmarked)
result: 95.66%

query: Fill in: DTC Dmax (%) on EGFR Del19/T790M/C797S (BaF3-DTC cells), entry CCc1cc(Nc2ncc(Br)c(Nc3ccc4nccnc4c3P(C)(C)=O)n2)c(OC)cc1N1CCC(N2CCN(CCN(C)c3ccc4c(c3)CN(C3CCC(=O)NC3=O)C4=O)CC2)CC1 (centres unmarked)
result: 81.19%

query: Fill in: DTC Dmax (%) on EGFR Del19/T790M/C797S (BaF3-DTC cells), entry COc1cc(N2CCC(N3CCN(C(=O)C4CCN(CC5CCN(c6ccc7c(c6)C(=O)N(C6CCC(=O)NC6=O)C7=O)CC5)CC4)CC3)CC2)ccc1Nc1ncc(Cl)c(Nc2ccccc2P(C)(C)=O)n1 (centres unmarked)
result: 99.16%

query: Fill in: DTC Dmax (%) on EGFR Del19/T790M/C797S (BaF3-DTC cells), entry CCc1cc(Nc2ncc(Br)c(Nc3ccc4nc(C)ccc4c3P(C)(C)=O)n2)c(OC)cc1N1CCC(N2CCN(C3CC(c4ccc(NC5CCC(=O)NC5=O)cc4)C3)CC2)CC1 (centres unmarked)
result: 84.65%

query: Fill in: DTC Dmax (%) on EGFR Del19/T790M/C797S (BaF3-DTC cells), entry CCc1cc(Nc2ncc(Br)c(Nc3ccc4nccnc4c3P(C)(C)=O)n2)c(OC)cc1N1CCC(N2CCN(C(=O)C3CN(c4ccc5c(c4)C(=O)N(C4CCC(=O)NC4=O)C5)C3)CC2)CC1 (centres unmarked)
result: 90.5%

query: Fill in: DTC Dmax (%) on EGFR Del19/T790M/C797S (BaF3-DTC cells), entry CCc1cc(Nc2ncc(Br)c(Nc3ccc4nccnc4c3P(C)(C)=O)n2)c(OC)cc1N1CCC(N2CCN(C(=O)C3CN(c4ccc5c(c4)CN(C4CCC(=O)NC4=O)C5=O)C3)CC2)CC1 (centres unmarked)
result: 93.85%

query: Fill in: DTC Dmax (%) on EGFR Del19/T790M/C797S (BaF3-DTC cells), entry COc1cc(N2CCC(N3CCN(C(=O)CCCCN4CCN(c5ccc6c(c5)C(=O)N(C5CCC(=O)NC5=O)C6=O)CC4)CC3)CC2)ccc1Nc1ncc(Cl)c(Nc2ccccc2N(C)S(C)(=O)=O)n1 (centres unmarked)
result: 99.67%

query: Fill in: DTC Dmax (%) on EGFR Del19/T790M/C797S (BaF3-DTC cells), entry CCc1cc(Nc2ncc(Br)c(Nc3ccc4nccnc4c3P(C)(C)=O)n2)c(OC)cc1N1CCC(N2CCN(C(=O)[C@H]3CCN(c4cccc(C5CCC(=O)NC5=O)c4)C3)CC2)CC1 (some centres unmarked)
result: 89.48%

query: Fill in: DTC Dmax (%) on EGFR Del19/T790M/C797S (BaF3-DTC cells), entry CCc1cc(Nc2ncc(Br)c(Nc3ccc4nc(C(F)(F)F)ccc4c3P(C)(C)=O)n2)c(OC)cc1N1CCC(N2CCN(CCc3cc(F)c(C4CCC(=O)NC4=O)c(F)c3)CC2)CC1 (centres unmarked)
result: 92.59%

query: Fill in: DTC Dmax (%) on EGFR Del19/T790M/C797S (BaF3-DTC cells), entry CCc1cc(Nc2ncc(Br)c(Nc3ccc4ncc(F)cc4c3P(C)(C)=O)n2)c(OC)cc1N1CCC(N2CCN(CCc3cc(F)c(C4CCC(=O)NC4=O)c(F)c3)CC2)CC1 (centres unmarked)
result: 94.98%

query: Fill in: DTC Dmax (%) on EGFR Del19/T790M/C797S (BaF3-DTC cells), entry CCc1cc(Nc2ncc(Br)c(Nc3ccc4nccnc4c3P(C)(C)=O)n2)c(OC)cc1N1CCC(N2CCN(CCc3ccc(C4CCC(=O)NC4=O)c(F)c3)[C@H](CO)C2)CC1 (some centres unmarked)
result: 83.17%

query: Fill in: DTC Dmax (%) on EGFR Del19/T790M/C797S (BaF3-DTC cells), entry CCc1cc(Nc2ncc(Br)c(Nc3ccc4nc(C)ccc4c3P(C)(C)=O)n2)c(OC)cc1N1CCC(N2CCN(CCCOc3cc(F)c(C4CCC(=O)NC4=O)c(F)c3)CC2)CC1 (centres unmarked)
result: 82.31%
